Hello, the source for this data is PubChem BioAssay (NCI), in case you need it.

Test system: MALME-3M melanoma
protocol-summary: NCI-60 one-dose screen, 48 h (100 = growth as untreated, 0 = no growth, -100 = all killed)
applied-conditions: 10 µM unless noted
This is part of a sample that, as a whole, favours compounds with a hit. Of some 83,000 tested, about 20% had one in any assay. Calls of active or inactive are those of the source. How the source made its calls: active means growth percent below 10; inactive means the rest.
Items are presented alongside their recorded growth.

In the examples that follow, each entry is paired with its recorded growth.
>>> result("COC(=O)[C@@]12CC=C(C)[C@]3(C[C@H](c4ccoc4)OC3=O)[C@H]1C=C[C@@H](O)[C@@]2(O)C(=O)OC")
"104% (inactive)"
>>> result("O=S(=O)(Nc1cc(F)cc(F)c1)c1ccc(-c2cnc(C3CC3)o2)cc1")
"50.1% (inactive)"
>>> result("O=C1O[C@@H](c2ccccc2Cl)[C@@H]2c3cc4c(cc3CCN12)OCO4")
"101% (inactive)"
>>> result("O=c1oc2c(cc1-c1ccccc1)c[n+]([O-])c1ccccc21")
"97.7% (inactive)"
>>> result("O=C(Nc1ccccc1O)c1ccc(CNc2ccnc(C(F)(F)F)c2)cc1")
"22% (inactive)"
>>> result("COc1ccc(C/C(C)=C(\\c2ccc(Cl)cc2)c2ccc(OCCN3CCCC3)cc2)cc1")
"93.5% (inactive)"

I am curious: what growth value has been reported for "CCC(C)(C)c1ccc(Nc2ccc(Nc3ccc(C(C)(C)CC)cc3)cc2)cc1" ? 97.4% (inactive)

---

Tested on: A498 renal
protocol-summary: NCI-60 one-dose screen, 48 h
applied-conditions: 10 µM unless noted
Compounds without any hit were thinned out: in the full panel of roughly 83,000, 20% have a hit. Activity calls are given as the source filed them. The calls were made as follows: active = growth percent below 10; inactive = the rest.
// allowed return values: active, inactive

Please review the entries below; each comes with its answer.
>>> cat("CN(C)Cc1cc(C(C)(C)C)cc(Br)c1O")
"inactive"
>>> cat("Nc1ccc(-c2ccncc2)cc1NC(=O)N1CCCC1")
"inactive"

Now for a further molecule.
Each molecule tested received a call. Report the one for "COc1cc(/C=C/c2cn[nH]c2-c2ccc(C)cc2)cc(OC)c1OC" . inactive

---

Test system: SK-MEL-5 melanoma
protocol-summary: NCI-60 one-dose screen, 48 h (100 = growth as untreated, 0 = no growth, -100 = all killed)
applied-conditions: 10 µM unless noted
The panel holds about 83,000 compounds, 20% with a hit somewhere; the sample as a whole holds those more often. Activity calls are given as the source filed them. The calls were made as follows: active = growth percent below 10; inactive = the rest.
The following molecules are listed with their measured growth values.

Example entries begin here.
>>> result("COc1ccc(NC(=O)c2ccc(Nc3ncnc4c3cnn4-c3cccc(F)c3)cc2)cc1")
"98.4% (inactive)"
>>> result("CCN(CC)CCOc1ccc(C(=O)/C=C\\c2ccc(Cl)cc2Cl)cc1")
"6.5% (active)"
>>> result("COc1cc(/C=C/C(=O)c2cc(OC)c(OC)c(OC)c2)ccc1Oc1nc2c(c(=O)n(C)c(=O)n2C)n1C")
"28.9% (inactive)"
>>> result("C=C(C)[C@@H]1CC[C@]2(C(=O)Nc3ccccn3)CC[C@]3(C)[C@H](CC[C@@H]4[C@@]5(C)CCCNC(C)(C)[C@@H]5CC[C@]43C)[C@@H]12")
"-96.5% (active)"
>>> result("CCCOC(=O)Nc1nc2ccc(SCC)cc2s1")
"83.6% (inactive)"
>>> result("COc1ccc(OC)c(Nc2nnc(-c3cc(OC)c(OC)c(OC)c3)o2)c1")
"93.9% (inactive)"
>>> result("CC1=C2CC/C(C)=C/CC[C@]3(C)O[C@H]3CC/C(C)=C/[C@H]2OC1")
"108% (inactive)"
>>> result("Cc1ccc2c(c1)=C/C(=C\\c1cc(-c3ccccc3)[nH]c1O)C(=O)N=2")
"47% (inactive)"

Shifting focus to the molecule that follows.
Which value of growth has been reported for COc1ccc(C(O)c2cc3c(N)c(C(=O)Nc4cccc5ccccc45)sc3nc2C)cc1 (stereo not drawn) in the records? -47.4% (active)

---

growth reference
Test system: HOP-92 NSCLC
protocol-summary: NCI-60 one-dose screen, 48 h (100 = growth as untreated, 0 = no growth, -100 = all killed)
applied-conditions: 10 µM unless noted
The panel holds about 83,000 compounds, 20% with a hit somewhere; the sample as a whole holds those more often.
Kindly provide the numeric value in % only, without the unit symbol.

Worked examples follow.
>>> measured_number("O=C1/C(=C/c2ccccn2)SC(=S)N1N1CCOCC1")
84.8
>>> measured_number("Nc1nc(C(=O)N/N=C/c2ccc(F)cc2)nn1-c1ccc(S(N)(=O)=O)cc1")
98.9
>>> measured_number("COC(=O)/C=C1/SC(=NCc2ccccc2)N(CCc2c[nH]c3ccccc23)C1=O")
74.6
>>> measured_number("O=c1cc(C(F)(F)F)c2cc(-c3cc4ccccc4c(=O)o3)c(O)cc2o1")
-0.397
>>> measured_number("O=c1cc(CP(=O)(O)O)c2cc(O)c(-c3ccccc3)cc2o1")
95.7

Query: growth; subject: "COC(=O)/C=C1/SC(=Nc2ccc(F)cc2)N(CCc2c[nH]c3ccc(O)cc23)C1=O" 40.2

Here is the next molecule: "c1ccc(Cn2cc3c(c2-c2ccccc2)CCc2cnoc2-3)cc1" 65.8

Ok, now "COc1ccc(Nc2ncc(C#N)c(NCCCNC(=O)C3CCC3)n2)cc1" 64.3

---

Test system: 786-0 renal
protocol-summary: NCI-60 one-dose screen, 48 h (100 = growth as untreated, 0 = no growth, -100 = all killed)
applied-conditions: 10 µM unless noted
About 83,000 compounds went through this panel and 20% of them were active in at least one assay; those are over-represented in the sample as a whole.
So basically, if growth comes in under 30% it's Y, and if it's 30% or more it's N.

>>> cat("COc1cc([C@@H](CCO)C[C@H](C)c2ccc3ccccc3c2)cc(OC)c1OC")
"Y"
>>> cat("Cn1cc(-c2csc(-c3cn(C)c4ccccc34)n2)c2cnccc21")
"Y"
>>> cat("Cc1nc([P+](c2ccccc2)(c2ccccc2)c2ccccc2)c(N2CCCCC2)o1")
"N"
>>> cat("CC(O)CNC(Cc1ccccc1)c1ccc2c(c1)OCO2 (stereo not given)")
"N"

Attention now turns to another entry.
Regarding "CNC(=O)c1cc(Oc2ccc3c(c2)sc2nc(-c4ccc(NC(=O)[C@@H](NC(=O)OC)C(C)C)cc4)cn23)ccn1" , kindly confirm whether its growth is beneath 30%. N

---

Tested on: MCF7 breast
protocol-summary: NCI-60 one-dose screen, 48 h (100 = growth as untreated, 0 = no growth, -100 = all killed)
applied-conditions: 10 µM unless noted
This is part of a sample that, as a whole, favours compounds with a hit. Of some 83,000 tested, about 20% had one in any assay.
// reported growth for each item listed
Unit % implied. Number only.

// solved cases for growth follow
>>> measured_number("O=S(=O)(NCCNc1nccc(-c2c(-c3ccc(F)c(O)c3)nc3sccn23)n1)c1ccc(Cl)cc1")
13.5
>>> measured_number("C1CCC(N2CN3c4nonc4N4CN(C5CCCCC5)CN5c6nonc6N(C2)C3C45)CC1 (stereo not drawn)")
89.1

Attention now turns to another entry.
For the compound "CN(C)CCn1c(=O)c2ccccc2n2nc3ccccc3c12" , what growth is on record? 72.6

---

Test system: SR leukemia
protocol-summary: NCI-60 one-dose screen, 48 h (100 = growth as untreated, 0 = no growth, -100 = all killed)
applied-conditions: 10 µM unless noted
This is part of a sample that, as a whole, favours compounds with a hit. Of some 83,000 tested, about 20% had one in any assay.
experimental-readout: growth (%)
# number only, unit % dropped from output

Examples with answers:
>>> measured_number("COc1ccc(-c2cc(-c3cn(-c4cccc(Cl)c4)nc3-c3ccc(OC)cc3)on2)cc1")
68.4
>>> measured_number("O=C(O)CC(C(=O)O)/C(=C\\c1ccccc1)c1ccccc1 (stereo unspecified)")
105
>>> measured_number("N=C(N)c1ccc(-c2ccc(-c3cc(Cl)cc(Cl)c3)s2)s1")
-29.4
>>> measured_number("CN1CCN(c2ccc(NC3=CC(=O)c4ncncc4C3=O)cc2)CC1")
-5.62
>>> measured_number("CC(C)(Sc1cc(C(C)(C)C)c(O)c(C(C)(C)C)c1)Sc1cc(C(C)(C)C)c(OC(=O)CCC(=O)O)c(C(C)(C)C)c1")
78.6
>>> measured_number("COc1cc2c(cc1-c1c(C)noc1C)ncc1nc(CN3CCOCC3)n([C@H](C)COC(F)F)c12")
33.7
>>> measured_number("O=C(C1=Cc2cc3ccccc3n2Cc2cnnn21)c1ccc(F)cc1")
87.6
>>> measured_number("N=C(N)c1ccc(OCCSCCOc2ccc(C(=N)N)cc2)cc1")
73.1
>>> measured_number("COC(=O)c1c(C)nc(C)c2c1C(=O)C=C(NCc1ccccc1)C2=O")
54.1
>>> measured_number("O=C(NCCCCO)c1cncnc1Nc1ccc2c(ccn2Cc2cccc(F)c2)c1")
93.4

Consider now this further compound.
Quick one: growth for "CC1=C2CC/C(C)=C/CC[C@]3(C)O[C@H]3CC/C(C)=C/[C@H]2OC1" ? 87.6
